assay: folding stability dG unfold (combined trypsin and chymotrypsin); higher = more stable
Decide using folding stability dG unfold: a value greater than or equal to 1 kcal/mol is yes (1), a smaller one is no (0).

Enquiry: API: above_or_equal(metric=folding stability dG unfold, cutoff=1 kcal/mol) for item SAGGGPAKEVPILALIKARNPETGEEYELPIVITANSKEDVEAAKGLVDTLAEALRELGFTEVEVEIGSAGG [r13_360_TrMRF]
Return: yes (1)

Enquiry: Same read-out for SAGGSAGGSADLLEELPGLEVVDIERKGNSVVALFRNKETGELVRVTVDADGNITVEVLPLESAGGSAGGSA [r18_26_TrROS_Hall] ?
Return: yes (1)

Enquiry: Now this one: SAGGSAGGSAGPVVISIPETNTLVVLAPLPDDRVLADVFQFDPTTPEPTVFTVPAENISFSAGGSAGGSAGG [r11_285_TrMRF]
Return: no (0)

Enquiry: Try the sequence SAGGSAGGSAGTIVTPTATYRIEKLPDKRVRIVVGDKEYEVRVGEPFYLPGGVPFEVLDESAGGSAGGSAGG [r11_147_TrMRF]
Return: no (0)

Enquiry: What do we get for SAGEYVLVEVERGGKVETFVLPPELAKELLEKYSPDSEIPVKLEGREVRLRVLPIKPKEPTPEELAKAASAG [r5_669_TrMRF] ?
Return: yes (1)

Enquiry: What would you report for SAGGSAGGSAGGKVLHVPYENIEEKIKEAEEKYPNKEILIHAYLPNGKLLKTIKIKVKKSAGGSAGGSAGGS [r10_741_TrMRF] ?
Return: yes (1)

Enquiry: Repeat with SAGGSAGGAFTVTLPDGRPVRVRLLGATFTFEVRIPPGVPDVVPGAKPDEVVKVTRVVLVVSLDSAGGSAGG [r6_907_TrMRF]
Return: yes (1)
